Measured TGI by item
System: 786-0 renal
Assay: NCI tumour cell line growth inhibition, 48 h
Your answer is read as µM, so omit the unit and give the number.

1. COc1cccc(-c2nc(-c3ccc(NC(=O)c4ccccc4)cc3)[nH]c2-c2ccnc(Br)c2)c1 | 5.88

Next, consider the following compound.
-- ask Identify measured TGI associated with COc1cc([C@@H]2c3cc4c(cc3[C@@H](NCc3ccc(C#N)cc3)C3COC(=O)[C@@H]32)OCO4)cc(OC)c1O (some centres undefined)
-- reply 2.32

====

Measured log10 TGI by item
Test system: NCI-H522 lung
Assay: NCI tumour cell line growth inhibition, 48 h
Heads up, the numbers here are log10 of TGI in µM units.

Solved cases (5 shown):
1) C=Cc1cc2c(cc1O)CC[C@@H]1[C@@H]2CC[C@]2(C)[C@@H](O)CC[C@@H]12 | 1.31
2) O=C1OC(C2OC(=O)c3cc(O)c(O)c(O)c3-c3c(O)c(O)c4oc(=O)c5c(c(O)c(O)c6oc(=O)c3c4c65)-c3c(cc(O)c(O)c3O)C(=O)OCC2O)C2OC(=O)c3c(c(O)c(O)c(O)c3[C@H]2O)-c2c1cc(O)c(O)c2O (some centres not stated) | 1.65
3) CCC(c1ccc(OC)cc1)C(CC)c1ccc(O)c(CN2CCCC2)c1 (configuration not stated) | 0.58
4) CC(C)NC(=O)OCc1c(COC(=O)NC(C)C)c(-c2ccc[n+](COC(=O)C3CC3)c2)n2c1CCC2 | 1.80
5) O=S(=O)(NCCCNc1cc(-c2cn(-c3ccccc3)nc2-c2cccc(O)c2)ccn1)c1cccc2ccccc12 | 0.75

Next, consider the following molecule.
-- ask State log10 TGI (NCI-H522 lung) of CN(C)CCNC1=CC(=O)c2c(O)ccc(O)c2C1=O .
-- reply 0.99

Entry source: PubChem BioAssay (NCI)
